Overview of recorded pIC50 for various compounds
TGT: recombinant full-length USP7 (Homo sapiens)
Construct: A 25 μl reaction volume containing recombinant full-length USP7 (62 pM)
Sequence (Q93009 whole entry): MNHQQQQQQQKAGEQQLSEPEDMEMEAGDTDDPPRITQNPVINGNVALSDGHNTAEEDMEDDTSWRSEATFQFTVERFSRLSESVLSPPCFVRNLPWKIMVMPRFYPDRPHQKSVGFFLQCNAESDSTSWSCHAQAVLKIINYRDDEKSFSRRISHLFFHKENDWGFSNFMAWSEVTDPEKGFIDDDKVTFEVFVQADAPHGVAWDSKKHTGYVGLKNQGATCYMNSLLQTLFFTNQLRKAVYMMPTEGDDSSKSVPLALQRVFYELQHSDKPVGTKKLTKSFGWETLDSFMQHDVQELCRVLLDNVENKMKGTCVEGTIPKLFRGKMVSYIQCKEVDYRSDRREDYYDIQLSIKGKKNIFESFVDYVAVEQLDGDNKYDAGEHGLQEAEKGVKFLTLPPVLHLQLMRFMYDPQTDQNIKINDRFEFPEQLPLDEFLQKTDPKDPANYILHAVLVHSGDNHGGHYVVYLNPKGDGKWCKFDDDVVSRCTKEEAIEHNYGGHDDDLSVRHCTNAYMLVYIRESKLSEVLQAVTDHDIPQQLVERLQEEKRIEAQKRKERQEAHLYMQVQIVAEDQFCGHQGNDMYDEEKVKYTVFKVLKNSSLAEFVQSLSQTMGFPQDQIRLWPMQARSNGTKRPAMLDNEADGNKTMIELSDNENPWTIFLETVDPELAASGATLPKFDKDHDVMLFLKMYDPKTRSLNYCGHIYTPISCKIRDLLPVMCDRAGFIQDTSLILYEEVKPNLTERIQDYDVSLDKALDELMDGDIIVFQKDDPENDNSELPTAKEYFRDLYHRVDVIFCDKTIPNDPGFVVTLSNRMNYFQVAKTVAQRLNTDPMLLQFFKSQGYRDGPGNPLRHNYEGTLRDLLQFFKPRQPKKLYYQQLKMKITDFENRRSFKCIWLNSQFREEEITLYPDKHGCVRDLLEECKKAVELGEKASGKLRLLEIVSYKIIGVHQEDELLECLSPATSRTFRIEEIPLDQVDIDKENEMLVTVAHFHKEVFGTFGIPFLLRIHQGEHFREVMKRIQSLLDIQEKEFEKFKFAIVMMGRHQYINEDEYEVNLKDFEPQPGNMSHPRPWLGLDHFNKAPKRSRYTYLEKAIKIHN
ASSAY DETAILS: USP7-mediated ubiquitin-rhodamine cleavage assay
Type: biochemical
STUDY CONDITIONS: recombinant full-length USP7 62 pM; ubiquitin-rhodamine 100 nM; 30-minute incubation with compound, 1 hour reaction at room temperature; read-out: Potency: USP7 IC50
pIC50: −log10 of the molar value.

# TEST SMILES, TGT, pIC50
rows = [
    ("Cc1cc(Cl)cc(-c2ccnc3cc([C@H](C)N4C(=O)CCC4=O)sc23)c1O[C@@H]1CNC[C@@H]1F", "recombinant full-length USP7 (Homo sapiens)", "> 6.00"),
    ("Cc1cc2nccc(-c3cc(Cl)ccc3OCC3CNC3)c2s1", "recombinant full-length USP7 (Homo sapiens)", "5.00 to 6.00"),
    ("O=C1CNC(=O)N1Cc1cc2ncnc(-c3cccc(OC(F)(F)F)c3)c2s1", "recombinant full-length USP7 (Homo sapiens)", "5.00 to 6.00"),
]
